Entry source: patent US20260053931A1

target: VHL complex (Homo sapiens, UniProt P40337); assay: Inhibition of HIF-1α peptide binding to the VHL complex using HTRF (Table 3); settings: mean ± S.E.M. of three replications; read-out: VHL-HIFa peptide IC50
pIC50: −log10 of the molar value.
Recorded measurements of pIC50, one per entry

Compound | Target Desc | pIC50
COc1ccc(C2=N[C@@H](c3ccc(Cl)cc3)[C@@H](c3ccc(Cl)cc3)N2C(=O)N2CCNC(=O)C2)c(OC(C)C)c1 [Nutlin-3, reference compound] | VHL complex (Homo sapiens, UniProt P40337) | < 5.00

Lab note: next compound to report on.
pIC50 measured on CCOc1cc(C(C)(C)C)ccc1C1=N[C@@](C)(c2ccc(Cl)cc2)[C@@](C)(c2ccc(Cl)cc2)N1C(=O)N1CCN(CC(=O)O)CC1 (racemic) [YX-02-023] = < 5.00

###

assay: Mouse liver microsomal stability; assay type: in vitro ADME; conditions: mouse liver microsomes, 0.5 μM compound
Property Name: half-life at 0.5 μM (min)
Answer with a number only, understood to be in min.

Consider CCOc1cc(C(C)(C)C)ccc1C1=N[C@](C)(c2ccc(Cl)cc2)[C@](C)(c2ccc(Cl)cc2)N1C(=O)N1CCN(CC(=O)NCCOCCOCCOCC(=O)N[C@H](C(=O)N2C[C@H](O)C[C@H]2C(=O)NCc2ccc(-c3scnc3C)cc2)C(C)(C)C)CC1 (racemic) . Its measured half-life at 0.5 μM is 25.9

###

target: MDM2-p53 (Homo sapiens)
Sequence (Q00987 whole entry): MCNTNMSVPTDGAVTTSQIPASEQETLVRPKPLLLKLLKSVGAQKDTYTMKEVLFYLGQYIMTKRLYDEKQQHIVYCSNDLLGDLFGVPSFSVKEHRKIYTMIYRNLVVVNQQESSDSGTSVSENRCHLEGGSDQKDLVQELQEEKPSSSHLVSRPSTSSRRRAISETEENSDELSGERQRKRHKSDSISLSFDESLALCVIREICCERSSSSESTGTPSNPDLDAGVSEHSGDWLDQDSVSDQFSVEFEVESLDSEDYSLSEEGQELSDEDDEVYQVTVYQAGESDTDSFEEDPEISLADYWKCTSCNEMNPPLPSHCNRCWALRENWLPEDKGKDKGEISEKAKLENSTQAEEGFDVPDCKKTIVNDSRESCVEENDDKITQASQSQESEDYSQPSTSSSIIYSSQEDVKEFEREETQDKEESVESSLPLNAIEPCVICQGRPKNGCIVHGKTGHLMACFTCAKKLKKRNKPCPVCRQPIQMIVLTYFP
Property Name: pIC50
The quantity pIC50 is defined as the negative base-10 logarithm of the molar concentration.

pIC50 reading for CCOc1cc(C(C)(C)C)ccc1C1=N[C@@](C)(c2ccc(Cl)cc2)[C@@](C)(c2ccc(Cl)cc2)N1C(=O)N1CCN(CC(=O)O)CC1 (racemic) [YX-02-023] : 7.96

###

target: Mdm2 (Homo sapiens, UniProt Q00987); experiment: In-Cell Western, mut p53 MDA-MB-231 cell line; assay type: cell-based; set-up: endogenous in cells; host or cells: MCF7 (A8); MDA-MB-231 (A9); conditions: mutant p53 MDA-MB-231
Sequence (Q00987 whole entry): as above

Compound | Target Desc | Mdm2 degradation
CCOc1cc(C(C)(C)C)ccc1C1=N[C@](C)(c2ccc(Cl)cc2)[C@](C)(c2ccc(Cl)cc2)N1C(=O)N1CCN(CC(=O)NCCCNC(=O)COc2ccc3c(c2)CN(C(=O)[C@H](NC(=O)[C@@H](C)NC)C(C)(C)C)[C@@H](C(=O)N[C@H]2CCCc4ccccc42)C3)CC1 [YX-02-228] | Mdm2 (Homo sapiens, UniProt Q00987) | degrade Mdm2
CCOc1cc(C(C)(C)C)ccc1C1=N[C@](C)(c2ccc(Cl)cc2)[C@](C)(c2ccc(Cl)cc2)N1C(=O)N1CCN(CC(=O)NCCOCCOCCOCC(=O)N[C@H](C(=O)N2C[C@H](O)C[C@H]2C(=O)NCc2ccc(-c3scnc3C)cc2)C(C)(C)C)CC1 (racemic) [YX-02-030] | Mdm2 (Homo sapiens, UniProt Q00987) | degrade Mdm2
